Measured self-cleavage, listed per entry.
B1: LINE1-full (parent)
chain: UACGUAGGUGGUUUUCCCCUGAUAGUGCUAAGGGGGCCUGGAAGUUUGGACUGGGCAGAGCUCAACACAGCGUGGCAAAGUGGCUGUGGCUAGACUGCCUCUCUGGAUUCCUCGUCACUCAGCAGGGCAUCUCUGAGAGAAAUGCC

- Variants of: B1
- protocol-notes: self-cleavage, relative activity (ratio to wild type); higher = more cleavage; in vitro, sequencing; the parent is a self-cleaving ribozyme

Per the record, UACGUAGGUGGUUUUCCCCUGAUAGUGCUAAGGGGGCCUGGGAGUUUGGACUGGGCAGAGCUCAACACAGCGUGGCAAAGUGGCUGUGGCUAGACUGCCUCUCUGGAUUCCUCGUCACUCUGCAGGGCAUCUCUGAGAGAAAUGCC has self-cleavage of 1.4

Looking up UACGUAGGUGGUUUUCCCCUGAUAGUGCUAAGGGGGCCUGGAAGUUUGGACUGGGCAGAGCUCAACACAGCGUGGCAAAGUGGCUGUGGCUAGACUGCCUCUCUGGAUUCCUCGUCUCUCAGCAGGGCAACUCUGAGAGAAAUGCC , I see its self-cleavage listed as 1.55

Quick note, self-cleavage for UACGUCGGUGGUUUUCCCCUGAUAGUGCUAAGGGGGCCUGGAAGUUUGGACUGGGCAGAGCUCAACACAGCGUGGCAAAGUGGCGGUGGCUAGACUGCCUCUCUGGAUUCCUCGUCACUCAGCAGGGCAUCUCUGAGAGAAAUGCC landed at 0.46

// field: self-cleavage; key: UACGUUGGUGGUUUUCCCCUGAUAGUGCUAAGGGGGCCUGGAAGUUUGGACUGGGCAGAGCUCAACACAGCGUGGCAAAGUGGCUGUGGCUAGACUGCCUCCCUGGAUUCCUCGUCACUCAGCAGGGCAUCUCUGAGAGAAAUGCC ; value = 0.68

Data point: UACGUAGGUGGUUUUCCCCUGAUAGUGCUAAGGGGGCCUGGAAGUUUGGACUGGGCAGAGCUCAACACAGCGUUGCAAAGUGGCUGUGGCUAGACUGCCUCUCUGGAUUCCUCGUCACUCAGCAGGGCAUCUCCGAGAGAAAUGCC ; self-cleavage = 1.88

Lab book: self-cleavage of UACGUAGGUGGUUUUCCUCUGAUAGUGCUAAGGGGGCCUGGAAGUUUGGACUGGGCAGAGCUCAACACAGCGUGGCAGAGUGGCUGUGGCUAGACUGCCUCUCUGGAUUCCUCGUCACUCAGCAGGGCAUCUCUGAGAGAAAUGCC noted as 0.88

Entry UACGUAGGUGGUUUUCCCCUGAUAGUGCUAAGGGGGCCUGGAAGUUUGGACUGGGCAGAGCUCAACGCAGCGUGGCAAAGUGGCUGUGGCUAGACUGCCUCUCUGGAUUCCUCGUCACUCAGCAGGGCAUCUCUGAGUGAAAUGCC ; self-cleavage = 0.56

Entry UACGUAGGUGGUUUUCCCCUGAUAGUGCUAAGGGGGCCUGGAAGUUUGGACUGGGCAGAGCUCAACACAGUGUGGCAAAGUGGCUGUGGCUAGACUGCCUCUCUGGAUUCCUCGUCACUCAGCAGGGCAUCUCUGAGAGGAAUGCC ; self-cleavage = 0.9

The recorded self-cleavage for UACGUAGGUGGUUUUCCCCUGAUAGUGCUAAGGGGGCCUGGAAGCUUGGACUGGGCAGAGCUCAACACAGCGUGGCAAAGUGGCUGUGGCUAGACUGCCUCUCUGGAUUCCUCGUCACUCAGCAGGGCAUCUCUAAGAGAAAUGCC is 1.28

// sample UACGUAGGUGGUUUUCCCCUGAUAGUGCUAAGGGGGCCUGGAAGUUUGGACUGGGCAGAGCUCAACACAGCGUGGCAAAGUGGCUGUGGCCAGACUACCUCUCUGGAUUCCUCGUCACUCAGCAGGGCAUCUCUGAGAGAAAUGCC , its self-cleavage was 0.05

The reported value for UACGUAGGUGGUUUUCCCCUGAUAGUGCUAAGGGCGCCUGGAAGUUUGGACUGGGCAGAGCUCAACACAGCGUGGCAAAGUGGCUGUGGCUAGACUGCCUCUCUGGAUUCCUCGUCACCCAGCAGGGCAUCUCUGAGAGAAAUGCC in terms of self-cleavage is 1.98

Looking up UACGUAGGUGGUUUUCCCCUGAUAGUGCCAAGGGGGCCUGGAAGUUUGGACUGGGCAGAGCUCAACACAGCGUGGCAAAGUGGCUGUGGCUAGACUGCCUCUCUGGAUUCCUCGUCACUCAGCAGGGCAUCUCUGAGAGAAACGCC , I see its self-cleavage listed as 1.75

Sample UACGUAGGUGGUUUUCCCCUGAUAGUGCCAAGGGGGCCUGGAAGUUUGGACUGGGCAGAGCUCAACACAGCGUAGCAAAGUGGCUGUGGCUAGACUGCCUCUCUGGAUUCCUCGUCACUCAGCAGGGCAUCUCUGAGAGAAAUGCC ; self-cleavage observed: 1.11

The variant UACGUUGGUGGUUUUCCCCUGAUAGUGCUAAGGGGGCCUGGAAGUUUGGACUGGGCAGAGCUCAACACAGCGUGGCAAAGUGGCUGUGGCUAGACUGCCUCUCUGGAUUCCUCGUCACUCAGCAGGGCAUCUUUGAGAGAAAUGCC showed self-cleavage equal to 1.04

self-cleavage reported for this variant UACGUAGGUGGUUUUCCCCUGAUAGUGCUAAGGGGGCCUGGAAGUUUGGACUGGGCAGAGCUCAACACAGCGUGGCAAAGUGGCUGAGGCUAGACUGCCUCUCUGGAUUCCUCGUCACUCAGCAGGGCAUCUCUGAGGGAAAUGCC : 0.07

Entry UACGUAGGUGGUUUUCCCCUGAUAGUGCUAAGGGGGCCUGGAAGUUUGGACUGGGCGGAGCUCAACACAGCGUGGCGAAGUGGCUGUGGCUAGACUGCCUCUCUGGAUUCCUCGUCACUCAGCAGGGCAUCUCUGAGAGAAAUGCC ; self-cleavage = 1.68

Noted for UACGUAGGUGGUUUUCCCCUGAUAGUGCUAAGGGGGCCUGGAAGUUUGGACUGGGCAGAGCUCUACACAGCGUGGCAAAGUGGCUGUGGCUAGACUGCCUCUCUGGAUUCCUCGUCACUCAGCAGGGCAUCUCUGGGAGAAAUGCC : its self-cleavage reads 0.71

GET /value?item= UACGUAGGUGGUUUUCCCCUGAUAGUACUAAGGGGGCCUGGAAGUUUGGACUGGGCAGAGCUCAACACAGCGUGGCAAAGUGGCUGUGGCUAGACUGCCUCUCUGGAUUCCUCGUCACUCAGCAGGGCAUCUCUGAGAGGAAUGCC &field=self-cleavage returns 1.38

Form field self-cleavage, entry UACGUAGCUGGUUUUCCCCUGAUAGUGCUAAGGGGGCCUGGAAGUUUGGACUGGGCAGAGCUCAACACAGCGUGGCAAAGCGGCUGUGGCUAGACUGCCUCUCUGGAUUCCUCGUCACUCAGCAGGGCAUCUCUGAGAGAAAUGCC : 1.08

# self-cleavage (variant: UACGUAGGUGGUUUUCCCCUGAUAGUGCUAAGGGGGCCUGGAAGUUUGGACUGGGCAGAGCUCAACACAGCAUGGCAAAGUGGCUGUGGCUAGACUGCCUCUCUGGAUUCCUCGUCACUCAACAGGGCAUCUCUGAGAGAAAUGCC ) is 1.6

Noted for CACGUAGGUGGUUUUCCCCUGAUAGUGCUAAGGGGGCCUGGAAGUUUGGGCUGGGCAGAGCUCAACACAGCGUGGCAAAGUGGCUGUGGCUAGACUGCCUCUCUGGAUUCCUCGUCACUCAGCAGGGCAUCUCUGAGAGAAAUGCC : its self-cleavage reads 0.64

For UACGCAGGUGGGUUUCCCCUGAUAGUGCUAAGGGGGCCUGGAAGUUUGGACUGGGCAGAGCUCAACACAGCGUGGCAAAGUGGCUGUGGCUAGACUGCCUCUCUGGAUUCCUCGUCACUCAGCAGGGCAUCUCUGAGAGAAAUGCC the variant record lists self-cleavage as 1.34
